# measured on: human 5-HT4(a) (Homo sapiens, UniProt Q13639)
# Sequence (Q13639 1-387 isoform Q13639-2): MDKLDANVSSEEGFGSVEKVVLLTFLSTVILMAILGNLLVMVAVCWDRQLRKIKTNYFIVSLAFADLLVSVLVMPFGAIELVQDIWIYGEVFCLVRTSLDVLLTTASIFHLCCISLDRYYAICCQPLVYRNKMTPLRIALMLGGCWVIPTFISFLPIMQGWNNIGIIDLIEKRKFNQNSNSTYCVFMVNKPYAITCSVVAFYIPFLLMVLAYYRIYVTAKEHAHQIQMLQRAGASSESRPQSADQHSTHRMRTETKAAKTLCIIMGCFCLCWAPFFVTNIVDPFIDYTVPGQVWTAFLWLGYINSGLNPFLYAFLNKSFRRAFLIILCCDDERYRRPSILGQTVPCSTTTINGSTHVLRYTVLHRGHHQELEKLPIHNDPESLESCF
# assay notes: Evaluation of agonistic activity in CHO-K1 cells expressing human 5-HT4(a) (GeneBlAzer HTR4-CRE-bla CHO-K1, beta-lactamase reporter)
# conditions used: CHO-K1 cells stably expressing human 5-HT4(a)
pEC50: −log10 of the molar value. Where a name gives a salt, the structure may show the parent alone.
# pEC50 >= 10 gives 1 (yes), anything below gives 0 (no)

Answered cases to consult:
CCCc1cc(N2CCC[C@H]2COC)nc(Nc2ccc(C)c([N+](=O)[O-])c2)n1 [Example 40]: 1 (yes)
CCCc1cc(N2CC[C@H](N)C2)nc(Nc2ccc(F)c([N+](=O)[O-])c2)n1 [Example 358, dihydrochloride]: 1 (yes)
CCCc1cc(N2CCC[C@@H]2CO)nc(Nc2ccc3cc[nH]c3c2)n1 [Example 186]: 0 (no)
CCCc1cc(N2CC[C@H](NCC3CC3)C2)nc(Nc2cc(Cl)ccc2C)n1 [Example 380]: 1 (yes)
CCCc1cc(N2CC[C@H](NCc3cccs3)C2)nc(Nc2cccc(C#N)c2)n1 [Example 112]: 1 (yes)

# input Record CCCc1cc(N2CC[C@H](NC(=O)CNC(=O)OCc3ccccc3)C2)nc(Nc2cccc(C#N)c2)n1 [Example 165] ; criterion: pEC50 no lower than 10. Met?
# output 0 (no)

# input Has CCCc1cc(N2CC[C@H](NCc3cccc(C(F)(F)F)c3)C2)nc(Nc2cccc(C#N)c2)n1 [Example 107] a recorded pEC50 greater than or equal to 10?
# output 0 (no)

# input Form field: pEC50 at least 10? Entry: CCCc1cc(N2CC[C@H](N)C2)nc(Nc2cc(N)cc(C(F)(F)F)c2)n1 [Example 342]
# output 1 (yes)

# input Entry CCCc1cc(N2CC[C@H](NC(C)=O)C2)nc(Nc2cc(N)cc(C#N)c2)n1 [Example 262] : is its pEC50 no less than 10?
# output 1 (yes)

# input Please indicate if the recorded pEC50 for CCCc1cc(N2CC[C@H](NC)C2)nc(Nc2ccc(F)c(C(F)(F)F)c2)n1 [Example 490] meets or exceeds 10.
# output 1 (yes)

# input Identify whether the reported pEC50 of the following compound is 10 or greater: CCCc1cc(N2CC[C@H](NC(C)=O)C2)nc(Nc2ccc(F)c(C(F)(F)F)c2)n1 [Example 253]
# output 1 (yes)

# input API: above_or_equal(metric=pEC50, cutoff=10) for item CCCc1cc(N2CC[C@H](NCCNC(=O)OC(C)(C)C)C2)nc(Nc2cccc(C#N)c2)n1 [Example 136]
# output 1 (yes)

# input For this compound, is measured pEC50 10 or higher? CCCCN[C@H]1CCN(c2cc(CCC)nc(Nc3cccc(C#N)c3)n2)C1 [Example 116]
# output 1 (yes)

# input Given CCCc1cc(N2CC[C@H](N)C2)nc(Nc2ccc(N)c(C#N)c2)n1 [Example 355] , state whether its pEC50 is at least 10.
# output 1 (yes)
